- Test system: E. coli CGSC 5633 (ToIC mutant)
- protocol: MIC, broth microdilution (CLSI), E. coli CGSC 5633
- Format: cell-based, Escherichia coli
- Design: unit not given beside the values
Assign labels as follows, please: satisfied for MIC E. coli CGSC 5633 below 0.2; not satisfied for MIC E. coli CGSC 5633 equal to or exceeding 0.2.

Strictly below 0.2: is that where MIC E. coli CGSC 5633 of `Nc1nc(N)c2c3c(c(NCc4ccc(F)c(F)c4)nc2n1)CCCC3` sits? not satisfied

Strictly below 0.2: is that where MIC E. coli CGSC 5633 of `CCCc1cc(N(C)C2CCCCC2)nc2nc(N)nc(N)c12` sits? not satisfied

Strictly below 0.2: is that where MIC E. coli CGSC 5633 of `Cc1cc(NCc2ccc(C(F)(F)F)cc2F)nc2nc(N)nc(N)c12` sits? not satisfied

Strictly below 0.2: is that where MIC E. coli CGSC 5633 of `COc1cc(CN(C)c2cc(C)c3c(N)nc(N)nc3n2)cc(OC)c1OC` sits? satisfied

Strictly below 0.2: is that where MIC E. coli CGSC 5633 of `COc1cc(CN(C)c2nc3nc(N)nc(N)c3c(C)c2Cc2ccccc2)cc(OC)c1` sits? satisfied

Strictly below 0.2: is that where MIC E. coli CGSC 5633 of `Cc1cc(NCc2ccc(F)cc2C(F)(F)F)nc2nc(N)nc(N)c12` sits? not satisfied

Strictly below 0.2: is that where MIC E. coli CGSC 5633 of `Cc1cc(NCc2cccc(C(F)(F)F)c2F)nc2nc(N)nc(N)c12` sits? not satisfied

Strictly below 0.2: is that where MIC E. coli CGSC 5633 of `Cc1cc(NCc2cc(F)c(F)c(F)c2)nc2nc([N+](=O)[O-])nc([N+](=O)[O-])c12` sits? not satisfied

Strictly below 0.2: is that where MIC E. coli CGSC 5633 of `Cc1cc(Nc2ccc3c(c2)OCCCO3)nc2nc(N)nc(N)c12` sits? satisfied

Strictly below 0.2: is that where MIC E. coli CGSC 5633 of `Cc1cc(NCc2cc(F)cc(C(F)(F)F)c2)nc2nc([N+](=O)[O-])nc([N+](=O)[O-])c12` sits? not satisfied

Strictly below 0.2: is that where MIC E. coli CGSC 5633 of `COc1cc(CN(C)c2nc3nc(N)nc(N)c3c3c2CCCC3)cc(OC)c1` sits? not satisfied

Strictly below 0.2: is that where MIC E. coli CGSC 5633 of `Cc1cc(NCc2ccc(F)cc2)nc2nc(N)nc(N)c12` sits? not satisfied

Strictly below 0.2: is that where MIC E. coli CGSC 5633 of `Cc1cc(NCc2ccc(C(F)(F)F)cc2)nc2nc(N)nc(N)c12` sits? not satisfied

Strictly below 0.2: is that where MIC E. coli CGSC 5633 of `COc1ccc(CN(C)c2cc(C)c3c(N)nc(N)nc3n2)cc1OC` sits? satisfied

Strictly below 0.2: is that where MIC E. coli CGSC 5633 of `Cc1c(C2CCCC2)c(NCc2ccc(F)c(F)c2)nc2nc(N)nc(N)c12` sits? not satisfied

Strictly below 0.2: is that where MIC E. coli CGSC 5633 of `Cc1cc(N2CCCc3ccccc32)nc2nc(N)nc(N)c12` sits? satisfied

Strictly below 0.2: is that where MIC E. coli CGSC 5633 of `CN(c1nc2nc(N)nc(N)c2c2c1CCCC2)C1CCCCC1` sits? satisfied

Strictly below 0.2: is that where MIC E. coli CGSC 5633 of `Cc1cc(NCc2ccc(Cl)c(C(F)(F)F)c2)nc2nc(N)nc(N)c12` sits? satisfied

Strictly below 0.2: is that where MIC E. coli CGSC 5633 of `COc1cc(CN(C)c2cc(C)c3c(N)nc(N)nc3n2)cc(OC)c1` sits? satisfied

Strictly below 0.2: is that where MIC E. coli CGSC 5633 of `Cc1c(N(C)C2CCCCC2)nc2nc(N)nc(N)c2c1C` sits? satisfied
